target: hCMV gH + gL + UL128 + UL130 + UL131A (co-expressed in HEK293T cells) (human cytomegalovirus), P12824; assay: competitor: 8J16-biotin; cell staining; conditions: remark: other sources report otherwise
Test readout: Inhibition of binding (%)
Units required after the number.

Recorded results for 6 binders are shown here.
7I13 (antibody, V domains shown) VH: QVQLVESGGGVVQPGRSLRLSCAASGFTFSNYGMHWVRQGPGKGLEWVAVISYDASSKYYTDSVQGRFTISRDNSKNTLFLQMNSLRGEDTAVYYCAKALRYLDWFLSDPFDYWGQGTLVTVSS VL: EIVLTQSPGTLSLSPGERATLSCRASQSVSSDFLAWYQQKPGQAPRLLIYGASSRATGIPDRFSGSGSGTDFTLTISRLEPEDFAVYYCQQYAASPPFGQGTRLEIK	0%
4I22 (antibody, V domains shown) VH: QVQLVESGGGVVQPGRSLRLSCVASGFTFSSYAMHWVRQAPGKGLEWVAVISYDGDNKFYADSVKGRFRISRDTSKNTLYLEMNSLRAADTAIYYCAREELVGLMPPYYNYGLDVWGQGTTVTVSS VL: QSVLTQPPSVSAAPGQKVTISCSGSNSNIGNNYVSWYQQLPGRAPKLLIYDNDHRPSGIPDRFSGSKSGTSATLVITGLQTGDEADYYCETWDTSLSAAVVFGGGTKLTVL	0%
7B13 (antibody, V domains shown) VH: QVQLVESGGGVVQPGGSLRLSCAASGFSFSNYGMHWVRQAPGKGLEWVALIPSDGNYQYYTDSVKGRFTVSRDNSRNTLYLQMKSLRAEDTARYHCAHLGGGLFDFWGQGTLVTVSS VL: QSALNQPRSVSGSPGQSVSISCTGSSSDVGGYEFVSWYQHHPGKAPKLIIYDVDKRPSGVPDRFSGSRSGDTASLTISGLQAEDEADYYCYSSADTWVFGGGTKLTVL	100%
9I6 (antibody, V domains shown) VH: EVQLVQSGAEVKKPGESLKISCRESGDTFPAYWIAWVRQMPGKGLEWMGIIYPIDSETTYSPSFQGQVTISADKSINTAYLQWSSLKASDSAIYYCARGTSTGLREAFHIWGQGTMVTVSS VL: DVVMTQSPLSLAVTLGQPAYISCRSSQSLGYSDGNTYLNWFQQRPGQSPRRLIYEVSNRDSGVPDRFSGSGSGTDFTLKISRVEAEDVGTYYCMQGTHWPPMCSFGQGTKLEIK	100%
2C12 (antibody, V domains shown) VH: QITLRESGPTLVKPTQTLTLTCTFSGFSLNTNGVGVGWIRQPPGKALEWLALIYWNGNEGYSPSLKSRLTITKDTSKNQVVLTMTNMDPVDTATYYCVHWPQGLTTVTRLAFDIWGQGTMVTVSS VL: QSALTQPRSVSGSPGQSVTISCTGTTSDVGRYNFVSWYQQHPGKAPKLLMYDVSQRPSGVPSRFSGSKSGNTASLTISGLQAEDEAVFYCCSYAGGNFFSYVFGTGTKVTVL	100%
8J16 (antibody, V domains shown) VH: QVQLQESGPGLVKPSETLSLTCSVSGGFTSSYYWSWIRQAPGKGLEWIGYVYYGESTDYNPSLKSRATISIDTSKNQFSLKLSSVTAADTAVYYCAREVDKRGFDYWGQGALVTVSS VL: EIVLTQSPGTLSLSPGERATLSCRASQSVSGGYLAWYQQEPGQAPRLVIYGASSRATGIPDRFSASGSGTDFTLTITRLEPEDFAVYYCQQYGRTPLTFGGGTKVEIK	100%

Task item: Give the measured Inhibition of binding (%) of 8C15 (antibody, V domains shown) VH: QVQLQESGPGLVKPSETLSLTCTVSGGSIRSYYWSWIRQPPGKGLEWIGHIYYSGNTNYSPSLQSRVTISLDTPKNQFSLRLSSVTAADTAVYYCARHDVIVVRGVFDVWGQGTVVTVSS VL: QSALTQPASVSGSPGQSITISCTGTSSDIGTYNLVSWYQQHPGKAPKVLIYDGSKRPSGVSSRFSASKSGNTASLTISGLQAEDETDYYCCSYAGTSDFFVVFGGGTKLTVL .
Reply: 100%
